Values from the domain aggregation screens of Martell et al. (2025)

ASSAY OVERVIEW: soluble fraction after stress (log2 fold change); higher = more stays soluble; pooled small domains, quantitative proteomics
CONDITION LABEL: stress: 50 degC
Overview of reported soluble fraction (log2) across a group of sequences:
Lab note: jot the number down without any unit.

Request: Consider the sequence HMGDVATVKLDNNGLLNMRKSDARGADIVARIPNGTVVQVLNRETEWTQVRYDGKEGYVMSSFLQFAE and give its measured soluble fraction (log2).
Response: 0.199

Request: I would be grateful if you could share the reported soluble fraction (log2) for HMPHSTTDFSVSPDERQIVYSTNLQGRYDLWALDHNQGYPYPLTKKGQMSFFIKHLPGSQMILTGFD .
Response: 0.00171

Request: Can you share its soluble fraction (log2)? I mean this sequence: HMHHDQQQITAELARIARNGLPGLTADNAIISRLDALNLLINIHDDRGADATPLRGLLPAIADELLRLT
Response: -0.273

Request: Which soluble fraction (log2) reading was recorded for the sequence HMTRDAQLAALERLMDDPSPVVRKAVLKGVQAAGTEGLLWLQQLSKNQTLGPYALALLTELR ?
Response: -0.412

###

ASSAY OVERVIEW: soluble fraction after stress (log2 fold change); higher = more stays soluble; pooled small domains, quantitative proteomics
CONDITION LABEL: stress: 50 degC
Measured soluble fraction (log2) values are reported for all entries that follow.
Answer as a number with no unit attached.

Worked cases, soluble fraction (log2) given:
Request: Report soluble fraction (log2) for HMTRYQHLAMLLEKRIAQGLYRNGERLPSVRSLSAEHGVSISTVQQAYYLLEQKQLIIPQSRSGYYVAPH please.
Response: -4.42

Request: So what does the record say about soluble fraction (log2) for HMFGNTGETSGTGVAFTRSPVDGENKIFGEFLVNAQGEDVVAGIRTPQPISEMEQAFPEVYSKFESVAEIL ?
Response: 0.0862

Request: Could you tell me which soluble fraction (log2) is on file for HMETDGGDLTPRERDVLSLIGRGLRNAEAASALGLSEHTIAGHIKSVYSKLGISTRAEAALLASRLGL ?
Response: -0.0786

Request: I'd like to know its soluble fraction (log2). The sequence in question is HMDIFLPDVKGYDLIPSFRRHLPDIDVIAMTGYNTRALESAVRQQDVLFYMIKPFEASQLKEILEHLVK
Response: -0.221

Request: Fill blank: measured soluble fraction (log2) of the sequence HMEVEIPSREALLGLVQKHLKPVSFDEFVSHFKLGDERQQVGIKRRLRAMERDGQLVYTKANSYGLPDRM is ____.
Response: 0.194

Let's switch to this sequence now.
Request: Request the reported soluble fraction (log2) associated with HMFIPMTDAQRHLFANKLAKLPELSEYSRGTESYEDFAIRIADMLLEPPKFRMFYPLLEQLGF
Response: -1.88

###

ASSAY OVERVIEW: soluble fraction after stress (log2 fold change); higher = more stays soluble; pooled small domains, quantitative proteomics
CONDITION LABEL: stress: 50 degC
Class assignment keyed on soluble fraction (log2), ranges class 1: < -0.7; class 2: ≥ -0.7 and < -0.1; class 3: ≥ -0.1

As a guide, the following entries are already answered.
Request: Please report the category associated with HMLVGRDPQALILGSMPSEKSLEEDEYYAHPRNRFWSLMNWLLAGNKTRPAYKTGIEILSSHGIALWV , nothing else.
Response: class 2

Request: For HMHQAVTVTKPARLFTGPDGKGVVRSLDVGMMLYPTGEKQGMMWEVEDELGNKGWVSSTLLELS , which soluble fraction (log2) bin applies?
Response: class 3

Request: Which category does the recorded soluble fraction (log2) put HMLMRKAEVGVESLNLRHGPGTQYKVLEILPGGKSLHYLAEPRRGWVRVTTEEGTTGWTFLKFLKPE in?
Response: class 1

Request: Pick a category. Item: HMRMTPRQALDDLIREREETYAAVSRLLGRNTAYIQQYIKRGTPARLDQSDIAQLALHFDVPAKLLGGKE
Response: class 1

Request: Kindly state the category for this sequence: HMQSITAGDKVRVKNYTVSGGKKRGKVYGGAGTFVVYYEKYDVISVTGDRVVIGIGKAVTAAVHIDDLEK
Response: class 1

More entries:
Request: Dear colleague, I would appreciate it if you could identify the bin for HMIGVQEFAMTYALTRRETEITQLIIQGKSNAMIAGELFISETTVKKHVSNIFEKTGVSRREELMVRVQAE and reply at your convenience.
Response: class 1

Request: Exam item: assign HMKRSVIVTAERAEVRQKADEGSALVFEAEKNVSLEYLEAAPGGWVKVRHLDGQSGFVRGNQI to the correct category.
Response: class 2

Request: Band assignment needed for HMIDDPTAVILRLVSEKQVIRRDDVVKALSVTPQKAYRLLKTMTTGGLLTRSGARRTTVYGLPDARER please.
Response: class 3

Request: // return the class label for HMLINFPNKLKRLRLANNLTQQELANILETTKQAVSSYESGKSTPSLNSLIKLSEHFNISLDSLVFD
Response: class 3

Request: For the record HMAVNQEFKNTINRIKYEYSLNQSQIADRLGVKKTYLSDMINGRVPYNETMNKKVNDVFPLPP , report the class its soluble fraction (log2) corresponds to.
Response: class 3
